Molecular target: Androgen Receptor (Homo sapiens, UniProt P10275)
Construct: endogenous in cells; host or cells: VCaP cells
Sequence (P10275 whole entry): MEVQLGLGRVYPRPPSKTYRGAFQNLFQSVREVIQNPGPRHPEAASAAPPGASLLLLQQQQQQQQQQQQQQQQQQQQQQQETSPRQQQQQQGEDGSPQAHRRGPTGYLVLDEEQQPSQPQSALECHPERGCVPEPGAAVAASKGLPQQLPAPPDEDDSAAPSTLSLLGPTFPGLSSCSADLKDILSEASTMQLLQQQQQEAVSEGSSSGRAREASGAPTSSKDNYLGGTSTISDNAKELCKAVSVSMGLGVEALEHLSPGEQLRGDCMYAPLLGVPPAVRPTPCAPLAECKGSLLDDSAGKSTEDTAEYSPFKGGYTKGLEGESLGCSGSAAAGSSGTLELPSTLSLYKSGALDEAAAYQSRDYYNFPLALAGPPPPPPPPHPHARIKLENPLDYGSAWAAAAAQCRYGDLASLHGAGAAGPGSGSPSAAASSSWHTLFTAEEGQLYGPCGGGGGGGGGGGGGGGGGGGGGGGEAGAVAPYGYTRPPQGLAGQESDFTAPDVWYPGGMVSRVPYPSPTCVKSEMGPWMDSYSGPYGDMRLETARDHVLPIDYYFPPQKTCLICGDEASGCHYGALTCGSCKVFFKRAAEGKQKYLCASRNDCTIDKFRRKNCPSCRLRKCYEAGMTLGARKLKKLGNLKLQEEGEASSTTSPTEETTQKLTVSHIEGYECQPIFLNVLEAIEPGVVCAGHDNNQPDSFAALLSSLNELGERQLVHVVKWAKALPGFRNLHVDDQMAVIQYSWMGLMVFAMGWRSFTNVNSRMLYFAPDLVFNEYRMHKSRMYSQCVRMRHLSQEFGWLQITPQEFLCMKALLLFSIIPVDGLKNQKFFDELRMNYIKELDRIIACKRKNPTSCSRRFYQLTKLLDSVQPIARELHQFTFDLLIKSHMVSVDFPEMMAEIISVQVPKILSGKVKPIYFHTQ
Experiment: Androgen Receptor ELISA assay (PathScan AR ELISA) in VCaP cells: AR degradation, Dmax and DC50
Format: cell-based
Details: VCaP cells; Table 36
Protocol: 1. Androgen Receptor ELISA Assay. The protocols used with VCaP cells are described below. The androgen receptor ELISA assay was performed using PathScan AR ELISA (Cell Signaling Catalog #12850) according to the following assay steps: […]

>  <compound>
Cc1nccn1-c1ccc([C@H](C)NC(=O)[C@@H]2C[C@@H](O)CN2C(=O)C(C(C)C)n2cc(OCCCOCCCCCOc3ccc(N4C(=S)N(c5ccc(C#N)c(C(F)(F)F)c5)C(=O)C4(C)C)cc3)cn2)cc1 (stereo in doubt)

>  <assayed.system>
Androgen Receptor (Homo sapiens, UniProt P10275)

>  <VCaP Dmax (%)>
_+

$$$$

Reference source for all entries: patent US11427548B2
